Hi there, I'd appreciate the recorded Post-emergence action, Set (rating) for every entry that follows.
system: Setaria; assay: Example B4: post-emergence herbicidal action of compounds of the invention; format: in vivo; settings: 3- to 6-leaf stage, 250 g of active substance/ha, 3 weeks after application, scale 1-9
Give bare numbers.

In the examples that follow, each entry is paired with its recorded Post-emergence action, Set (rating).
COMPOUND	Post-emergence action, Set (rating)
Cc1cc(Br)c(-c2c(O)n3n(c2=O)CCOCC3)c(Br)c1	3
Cc1cc(C)c(-c2c(O)n3n(c2=O)CCOCC3)c(Br)c1	4
CCc1cc(C)cc(CC)c1-c1c(O)n2n(c1=O)CCOCC2	1
CCc1cc(Br)cc(C)c1-c1c(OC(=O)C(C)(C)C)n2n(c1=O)CCOCC2	2
C#Cc1cc(C)cc(C)c1-c1c(OC(=O)C(C)(C)C)n2n(c1=O)CCOCC2	2

Record Post-emergence action, Set (rating) for all entries; do not skip any.
1. Cc1cc(C)c(-c2c(O)n3n(c2=O)CCOCC3)c(C)c1
2. CCc1cc(C)cc(C)c1-c1c(OC(=O)C(C)(C)C)n2n(c1=O)CCOCC2

OUTPUT:
1: 2; 2: 2
